For each of the binders below, state its pKd.
# system: DCAF12 (Δ1-78) (human, UniProt Q5T6F0 79-453)
# Sequence (Q5T6F0 79-453, stated change not applied): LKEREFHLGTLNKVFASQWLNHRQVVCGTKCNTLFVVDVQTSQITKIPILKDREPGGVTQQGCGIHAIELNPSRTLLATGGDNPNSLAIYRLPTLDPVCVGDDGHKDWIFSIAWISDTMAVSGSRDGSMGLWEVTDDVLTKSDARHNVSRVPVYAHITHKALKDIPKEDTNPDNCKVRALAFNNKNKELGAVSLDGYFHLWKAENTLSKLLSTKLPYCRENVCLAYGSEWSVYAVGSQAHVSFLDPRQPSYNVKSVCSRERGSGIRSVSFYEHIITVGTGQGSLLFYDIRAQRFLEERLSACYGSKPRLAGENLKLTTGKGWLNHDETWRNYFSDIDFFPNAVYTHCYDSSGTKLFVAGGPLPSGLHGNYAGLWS
# test-name: fluorescence polarisation
pKd: −log10 of the molar value. Ends that are not written are not given here.

LHEWVLREGEE (also: FITC label, position not given here) [FITC-labeled MAGEA3 C-terminal degron peptide]: > 6.43

Shift focus to the following entry.
Endpoint output: pKd of IRKPGESEE (also: FITC label, position not given here) [FITC-labeled CCT5 C-terminal degron peptide] . Value?
> 6.43
